Cited source: ChEMBL document CHEMBL3045401

Test: Cytotoxicity against HEL
Assay type: cell-based
Settings: human, HEL cells
Could you please mark MET for values of CC50 below 60 µg/mL and NOT MET for values at or above it?

{"columns": ["compound", "group"],
 "data": [
  ["COc1cc(/C=N/NC(=O)COc2cccc3ccccc23)cc(OC)c1O", "MET"],
  ["COc1ccc(/C=N/NC(=O)COc2cccc3ccccc23)cc1OC", "MET"],
  ["C/C(=N\\NC(=O)COc1cccc2ccccc12)c1cccc([N+](=O)[O-])c1", "MET"],
  ["O=C(COc1cccc2ccccc12)N/N=C/c1ccc(F)cc1", "NOT MET"],
  ["O=c1[nH]c(=O)n([C@H]2C[C@H](O)[C@@H](CO)O2)cc1/C=C/Br [BRIVUDINE]", "NOT MET"],
  ["C/C(=N\\NC(=O)COc1cccc2ccccc12)c1ccc(Cl)cc1", "MET"],
  ["Nc1nc2c(ncn2COCCO)c(=O)[nH]1 [ACYCLOVIR]", "NOT MET"],
  ["COc1ccc(/C=N/NC(=O)COc2cccc3ccccc23)cc1O", "MET"]
]}
